# system: B. mori GABAR RDL (wild-type isoform, exon 3b and exon 6d) (Bombyx mori)
# Construct: full cDNA in pcDNA3.1, cRNA expressed in Xenopus laevis oocytes; RDL injected alone (homomer)
# assay.comment: two-electrode voltage clamp, Xenopus oocytes, block of GABA peak current
pIC50: −log10 of the molar value.
measurement.kind: pIC50

* N#Cc1nn(-c2c(Cl)cc(C(F)(F)F)cc2Cl)c(N)c1[S+]([O-])C(F)(F)F (stereo not shown) | 7.40

---

# system: B. mori GABAR RDL (wild-type isoform, exon 3b and exon 6d) (Bombyx mori, UniProt U3TMA1)
# Construct: full cDNA in pcDNA3.1, cRNA expressed in Xenopus laevis oocytes; RDL injected alone (homomer)
# Sequence (U3TMA1 29-482, change not shown): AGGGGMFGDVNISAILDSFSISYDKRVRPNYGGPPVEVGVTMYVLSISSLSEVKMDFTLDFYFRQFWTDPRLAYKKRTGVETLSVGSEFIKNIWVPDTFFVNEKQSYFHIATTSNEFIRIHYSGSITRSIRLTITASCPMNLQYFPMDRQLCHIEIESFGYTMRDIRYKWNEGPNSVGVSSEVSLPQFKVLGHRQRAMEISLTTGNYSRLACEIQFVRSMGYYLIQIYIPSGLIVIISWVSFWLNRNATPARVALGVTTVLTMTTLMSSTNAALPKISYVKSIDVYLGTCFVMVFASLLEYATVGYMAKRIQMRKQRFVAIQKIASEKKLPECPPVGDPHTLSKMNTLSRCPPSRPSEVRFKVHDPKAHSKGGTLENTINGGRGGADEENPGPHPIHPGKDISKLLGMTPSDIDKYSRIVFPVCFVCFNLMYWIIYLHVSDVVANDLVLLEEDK
# assay.comment: two-electrode voltage clamp, Xenopus oocytes, agonist concentration-response
# Type: cell-based
pEC50: −log10 of the molar value.
measurement.kind: pEC50

• NCCCC(=O)O = 4.39
